Test system: 857933-349-R-J2-PDC complex spheroids, viability
Assay method text: Anticancer human tumor 857933-349-R-J2-PDC patient-derived colon adenocarcinoma cell line growth inhibition [GQUAD]
Reported conditions: second compound 1 µM; first compound 1 µM; stronger effect = lower value
Assay metric: viability, T/C (%)

- Molecule: "C=CCn1c(=O)c2cnc(Nc3ccc(N4CCN(C)CC4)cc3)nc2n1-c1cccc(C(C)(C)O)n1 + Cc1[nH]c2ccc(F)cc2c1-c1nc2c3cccnc3c3ncccc3c2[nH]1"
  Readout number: 63.4
- Molecule: "C=CCn1c(=O)c2cnc(Nc3ccc(N4CCN(C)CC4)cc3)nc2n1-c1cccc(C(C)(C)O)n1 + Cc1cnc(CNC(=O)c2c(=O)c3ccc(N4CCCN(C)CC4)nc3n3c2sc2ccccc23)cn1"
  Readout number: 2.03
- Molecule: "C=CCn1c(=O)c2cnc(Nc3ccc(N4CCN(C)CC4)cc3)nc2n1-c1cccc(C(C)(C)O)n1 + CN(C)c1ccc(Nc2c3ccc(NC(=O)CCN4CCCC4)cc3nc3cc(NC(=O)CCN4CCCC4)ccc23)cc1"
  Readout number: 60.8
- Molecule: "CC(C)(O)C1CCC(Nc2ccc3ncc(-c4cccc(C(F)(F)F)c4)n3n2)CC1 (stereo not drawn) + CN(C)c1ccc(Nc2c3ccc(NC(=O)CCN4CCCC4)cc3nc3cc(NC(=O)CCN4CCCC4)ccc23)cc1"
  Readout number: 33.8
- Molecule: "CC(=O)O[C@H]1C(=O)[C@@]2(C)[C@H]([C@H](OC(=O)c3ccccc3)[C@]3(O)C[C@H](OC(=O)[C@H](O)[C@@H](NC(=O)c4ccccc4)c4ccccc4)C(C)=C1C3(C)C)[C@]1(OC(C)=O)CO[C@@H]1C[C@@H]2O + Cc1[nH]c2ccc(F)cc2c1-c1nc2c3cccnc3c3ncccc3c2[nH]1"
  Readout number: 12.3
- Molecule: "C=CC(=O)N1CCN(c2nc(=O)n(-c3c(C)ccnc3C(C)C)c3nc(-c4c(O)cccc4F)c(F)cc23)C(C)C1 (stereo not drawn) + Cc1cnc(CNC(=O)c2c(=O)c3ccc(N4CCCN(C)CC4)nc3n3c2sc2ccccc23)cn1"
  Readout number: 4.4
- Molecule: "COc1ncnc(C2CC2)c1-c1ncc2cnn(Cc3ccc(-c4nc(C(F)(F)F)cn4C(C)C)cc3)c2n1 + Cc1[nH]c2ccc(F)cc2c1-c1nc2c3cccnc3c3ncccc3c2[nH]1"
  Readout number: 87.9
- Molecule: "Nc1ccn(C2OC(CO)C(O)C2(F)F)c(=O)n1 (stereo not drawn) + Cc1cnc(CNC(=O)c2c(=O)c3ccc(N4CCCN(C)CC4)nc3n3c2sc2ccccc23)cn1"
  Readout number: 1.63

---

Tested on: 857933-349-R-J2-PDC complex spheroids, viability
Assay method text: Anticancer human tumor 857933-349-R-J2-PDC cell line growth inhibition [GQUAD];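 note: spheroids exposed to compounds for one week before readout; percent viability relative to vehicle DMSO wells taken as 100%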
Reported conditions: second compound 1 µM; first compound 10 µM; stronger effect = lower value

- Compound: "C=CC(=O)N1CCN(c2nc(=O)n(-c3c(C)ccnc3C(C)C)c3nc(-c4c(O)cccc4F)c(F)cc23)C(C)C1 (stereo not drawn) + Cc1[nH]c2ccc(F)cc2c1-c1nc2c3cccnc3c3ncccc3c2[nH]1"
  System: "857933-349-R-J2-PDC complex spheroids, viability"
  viability, T/C (%): 89.2
- Compound: "COc1ncnc(C2CC2)c1-c1ncc2cnn(Cc3ccc(-c4nc(C(F)(F)F)cn4C(C)C)cc3)c2n1 + CN(C)c1ccc(Nc2c3ccc(NC(=O)CCN4CCCC4)cc3nc3cc(NC(=O)CCN4CCCC4)ccc23)cc1"
  System: "857933-349-R-J2-PDC complex spheroids, viability"
  viability, T/C (%): 87.6
- Compound: "COc1ncnc(C2CC2)c1-c1ncc2cnn(Cc3ccc(-c4nc(C(F)(F)F)cn4C(C)C)cc3)c2n1 + Cc1[nH]c2ccc(F)cc2c1-c1nc2c3cccnc3c3ncccc3c2[nH]1"
  System: "857933-349-R-J2-PDC complex spheroids, viability"
  viability, T/C (%): 90.7
